Recorded values, source PubChem BioAssay (NCATS).

assay-procedure: Quantitative High-Throughput drug screen in 47 multiple myeloma cell lines against the NCATS MIPE library collection: KMS28PE_JCRB cell viability assay (AID 1918983); note: nearly all actives have a fitted effect of over 35% in size
setup-conditions: KMS28PE multiple myeloma viability, CellTiter-Glo ATP, 48 h; series mostly up to 45.8 µM
Description: PI: Beverly A. Mock Ph.D. Laboratory of Cancer Biology and Genetics, Center for Cancer Research, National Cancer Institute, National Institute of Health, Bethesda, Maryland […] 5; Detector; 425V; Luminescence; Viewlux PerkinElmer. […] 1. […] Briefly, the corresponding myeloma cell lines were screened in 1,536-well plates with 500 cells, 5-uL per well for inhibition of cell viability (assessed by measuring ATP levels with CellTiterGlo). […]
Records with an inconclusive call do not appear. Active and inactive are the calls of the source. Calls come from the whole dose curve; as a rule, active = well fitted cell-killing curve with a large enough effect; inconclusive = small, poorly fitted or top-dose-only effect, or effect the other way; inactive = no such curve, though single readings can be large or run the other way.
// allowed return values: true (1) = active, false (0) = inactive

O=c1[nH]cc(F)c(=O)[nH]1 : false (0)
CCOC(=O)C(C)(C)Oc1ccc(Cl)cc1 : false (0)
CN(C)CCOC(c1ccccc1)c1ccccc1 : false (0)
Cn1c(=O)c2c(ncn2C)n(C)c1=O : false (0)
CN1CCC(=C2c3ccccc3CC(=O)c3sccc32)CC1 : false (0)

## Input Fill in: this test's call for `O=C(CCCN1CCC(O)(c2ccc(Cl)cc2)CC1)c1ccc(F)cc1` is ___
## Output true (1)
